# Tested on: MCF7
# measurement-notes: Cytotoxicity against human MCF7 cells assessed as cell growth inhibition at 5 uM incubated for 48 hrs by CCK8 assay relative to control
# Format: functional
readout-name: inhibition at 5 µM (%)
Provide the reading as a plain figure in %.

Worked set:
COc1cc2c(cc1OC)CN(C(=O)c1ccc(-c3ccc(NC(C)=O)cc3)o1)CC2
11
COc1cc2c(cc1OC)CN(C(=O)c1ccc(-c3ccc(NC(=O)c4cc5c(C)cccc5[nH]4)cc3)o1)CC2
16.6

Looking for the measured inhibition at 5 µM of "COc1cc2c(cc1OC)CN(C(=O)c1ccc(-c3ccc(NC(=O)c4cc5ccccc5o4)cc3)o1)CC2" , can you help?
44.5

// next record "COc1cc2c(cc1OC)CN(C(=O)c1ccc(-c3ccc(NC(=O)C4CCC4)cc3)o1)CC2"
15.3

// next record "COc1cc2c(cc1OC)CN(C(=O)c1ccc(-c3ccc(NC(=O)CC(C)(C)C)cc3)o1)CC2"
18.5

// next record "CCCCC(=O)Nc1ccc(-c2ccc(C(=O)N3CCc4cc(OC)c(OC)cc4C3)o2)cc1"
17.6

// next record "COc1cc2c(cc1OC)CN(C(=O)c1ccc(-c3ccc(NC(=O)c4cc5ccc(Br)cc5[nH]4)cc3)o1)CC2"
7.4

// next record "C/C=C/C(=O)Nc1ccc(-c2ccc(C(=O)N3CCc4cc(OC)c(OC)cc4C3)o2)cc1"
1.7

// next record "COc1ccc2[nH]c(C(=O)Nc3ccc(-c4ccc(C(=O)N5CCc6cc(OC)c(OC)cc6C5)o4)cc3)cc2c1"
19.5

// next record "COc1cc2c(cc1OC)CN(C(=O)c1ccc(-c3ccc(NC(=O)c4cc5ccccc5[nH]4)cc3)o1)CC2"
13.3

// next record "COc1cc2c(cc1OC)CN(C(=O)c1ccc(-c3ccc(NC(=O)C4CCCC4)cc3)o1)CC2"
15.7
